Target: Endothelial lipase (EL) (Homo sapiens)
Construct: transformed by RAGE technology (Athersys) to overexpress endogenous EL; endogenous in cells; the conditioned medium served as the enzyme source
Sequence (Q9Y5X9 21-500): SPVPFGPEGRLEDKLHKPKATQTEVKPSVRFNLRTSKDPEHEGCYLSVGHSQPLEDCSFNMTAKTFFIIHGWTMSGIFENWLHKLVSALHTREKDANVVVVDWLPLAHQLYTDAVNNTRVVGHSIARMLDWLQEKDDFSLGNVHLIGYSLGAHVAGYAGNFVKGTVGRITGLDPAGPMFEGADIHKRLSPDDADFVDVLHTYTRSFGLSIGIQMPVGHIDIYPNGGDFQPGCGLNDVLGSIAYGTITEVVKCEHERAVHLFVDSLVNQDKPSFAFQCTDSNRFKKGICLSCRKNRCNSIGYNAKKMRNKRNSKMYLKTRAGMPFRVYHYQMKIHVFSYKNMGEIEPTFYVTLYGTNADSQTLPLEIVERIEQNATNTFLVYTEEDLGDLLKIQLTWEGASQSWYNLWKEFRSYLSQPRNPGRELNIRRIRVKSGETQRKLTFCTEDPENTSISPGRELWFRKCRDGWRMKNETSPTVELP
Test: Endothelial lipase (EL) enzymatic assay with fluorescent substrate A10070 in DMPG vesicles
Conditions: conditioned media from HT-1080 cells overexpressing endogenous EL; 20 min preincubation at 37° C.
Endpoint name: IC50 (nM)

Compound	Unit label	IC50
N#CC(C(=O)NCC(=O)N1CCCC1)c1nc2ccc(-c3ccccc3)cc2s1 (stereo not shown)	nM	1320
COCCNC(=O)c1ccc(-c2ccc3nc(C(C#N)C(=O)NCC(=O)NC4CC4)sc3c2)cc1 (stereo not shown)	nM	16
N#CC(C(=O)NCC(=O)NC1COC1)c1nc2ccc(-c3ccc(F)nc3)cc2s1 (stereo not shown)	nM	67

1: N#CC(C(=O)NCC(=O)NC1CC1)c1nc2ccc(-c3ccc(C(=O)N4CCOCC4)cc3)cc2s1 (stereo not shown)
2: N#CC(C(=O)NCC(=O)NC1CC1)c1nc2ccc(-c3cccc(C(=O)N4CCCCC4)c3)cc2s1 (stereo not shown)
Req: Which record would sort first by descending IC50, 1 or 2 ? Use the label to indicate which entry you chose.
Resp: 1
(1: 62 nM, 2: 16 nM)
